The reported numbers originate from paper PMC6977318.

Test: MTT cytotoxicity of TSG for Caco-2 cells
Type: cell-based
Details: human; Caco-2 cells, 60 μg·mL^− 1 TSG, 5 h, MTT; read-out: cell viability
MEASURE: viability at 5 h, 60 μg·mL^-1

Can you look up the measured viability at 5 h, 60 μg·mL^-1 of OC[C@H]1O[C@@H](Oc2c(O)cc(O)cc2/C=C/c2ccc(O)cc2)[C@H](O)[C@@H](O)[C@@H]1O for me?
> 90%
